- System: woolly cupgrass (Eriochloa villosa)
- Assay details: Test B pre-/postemergence plant response
- Format: in vivo
- Experimental parameters: 62 g ai/ha, postemergence; 0 is no effect, 100 is complete control; 13 to 15 days
Experimental readout: Cupgrass, Woolly plant response rating (0 to 100 scale)
Respond with the number and no other words.

Value of measured Cupgrass, Woolly plant response rating (0 to 100 scale) for the entry CCCn1c(-c2cccc(C(F)(F)F)c2)ncc(C(=O)C2=C(O)CCCC2=O)c1=O [Compound 155] : 45

Value of measured Cupgrass, Woolly plant response rating (0 to 100 scale) for the entry O=C1CCCC(O)=C1C(=O)c1cnc(-c2ccccc2Br)n(-c2ccccc2)c1=O [Compound 71] : 45

Value of measured Cupgrass, Woolly plant response rating (0 to 100 scale) for the entry COCCCn1c(-c2cccc(C)c2)ncc(C(=O)C2=C(O)CCCC2=O)c1=O [Compound 118] : 70

Value of measured Cupgrass, Woolly plant response rating (0 to 100 scale) for the entry COCCCn1c(-c2cc(F)cc(F)c2)ncc(C(=O)C2=C(O)CCCC2=O)c1=O [Compound 120] : 75

Value of measured Cupgrass, Woolly plant response rating (0 to 100 scale) for the entry COCCn1c(-c2cccc(C)c2)ncc(C(=O)C2=C(O)CCCC2=O)c1=O [Compound 117] : 85

Value of measured Cupgrass, Woolly plant response rating (0 to 100 scale) for the entry CCCc1ncc(C(=O)C2=C(O)CCCC2=O)c(=O)n1CC1CCCO1 (centres unmarked) [Compound 74] : 10

Value of measured Cupgrass, Woolly plant response rating (0 to 100 scale) for the entry CC(C)n1c(-c2ccccc2)ncc(C(=O)C2=C(O)CCCC2=O)c1=O [Compound 95] : 55

Value of measured Cupgrass, Woolly plant response rating (0 to 100 scale) for the entry CCCCc1ncc(C(=O)C2=C(O)CCCC2=O)c(=O)n1-c1ccc(C)cc1 [Compound 67] : 70

Each recorded value in this set is attributed to patent US8952024B2.
